- Assay Info: Inhibition of chymotrypsin-like activity of 20S proteasome in human MOLT4 cells after 1 hr by […]
- Format: cell-based
- Run Conditions: MOLT-4, 1 h
Hi there, I'd appreciate the recorded pIC50 for every entry that follows.
Bear in mind: pIC50 is minus log10 of a mol/L concentration; give just that figure.

Tell us which pIC50 value is on record for CC[C@H](NC(=O)[C@H](COC)NC(=O)c1cc(C)on1)C(=O)N[C@@H](CC(C)C)C(=O)[C@@]1(C)CO1 6.61

Tell us which pIC50 value is on record for COC[C@H](NC(=O)c1cc(C)on1)C(=O)N[C@@H](Cc1cscn1)C(=O)N[C@@H](CC(C)C)C(=O)[C@@]1(C)CO1 7.60

Tell us which pIC50 value is on record for CC(C)C[C@H](NC(=O)[C@@H]1CCCO1)C(=O)N[C@@H](Cc1ccccc1)C(=O)N[C@@H](CC(C)C)C(=O)[C@@]1(C)CO1 6.74

Tell us which pIC50 value is on record for COCc1cc(C(=O)N[C@@H](CC(C)C)C(=O)N[C@@H](Cc2ccccc2)C(=O)N[C@@H](CC(C)C)C(=O)[C@@]2(C)CO2)no1 8.09

Tell us which pIC50 value is on record for CC(C)C[C@H](NC(=O)c1ccnnc1)C(=O)N[C@@H](Cc1ccccc1)C(=O)N[C@@H](CC(C)C)C(=O)[C@@]1(C)CO1 7.30

Tell us which pIC50 value is on record for CC(C)C[C@H](NC(=O)c1ccncc1)C(=O)N[C@@H](Cc1ccccc1)C(=O)N[C@@H](CC(C)C)C(=O)[C@@]1(C)CO1 7.26

Tell us which pIC50 value is on record for Cc1cc(C(=O)N[C@@H](CC(C)C)C(=O)N[C@@H](Cc2ccccc2)C(=O)N[C@@H](CC(C)C)C(=O)[C@@]2(C)CO2)no1 7.77

====

- Assay Info: Metabolic stability in mouse liver microsomes assessed as extraction ratio at 1 uM
- Format: ADME, Microsome
Param threshold (0.5 dimensionless ratio) applies to hepatic extraction ratio at 1 µM; output fulfilled when value >= threshold, not fulfilled when value < threshold.

Please indicate if the recorded hepatic extraction ratio at 1 µM for CC[C@H](NC(=O)[C@H](COC)NC(=O)c1cc(C)on1)C(=O)N[C@@H](CC(C)C)C(=O)[C@@]1(C)CO1 meets or exceeds 0.5 dimensionless ratio. not fulfilled

Please indicate if the recorded hepatic extraction ratio at 1 µM for COC[C@H](NC(=O)c1cc(C)on1)C(=O)N[C@@H](Cc1ccsc1)C(=O)N[C@@H](CC(C)C)C(=O)[C@@]1(C)CO1 meets or exceeds 0.5 dimensionless ratio. fulfilled

Please indicate if the recorded hepatic extraction ratio at 1 µM for COC[C@H](NC(=O)c1ccon1)C(=O)N[C@@H](COC)C(=O)N[C@@H](CC(C)C)C(=O)[C@@]1(C)CO1 meets or exceeds 0.5 dimensionless ratio. not fulfilled

Please indicate if the recorded hepatic extraction ratio at 1 µM for COC[C@H](NC(=O)c1cc(C)on1)C(=O)N[C@@H](CC(C)C)C(=O)N[C@@H](CC(C)C)C(=O)[C@@]1(C)CO1 meets or exceeds 0.5 dimensionless ratio. not fulfilled

Please indicate if the recorded hepatic extraction ratio at 1 µM for CCOc1cc(C(=O)N[C@@H](COC)C(=O)N[C@@H](COC)C(=O)N[C@@H](Cc2ccccc2)C(=O)[C@@]2(C)CO2)no1 meets or exceeds 0.5 dimensionless ratio. fulfilled

Please indicate if the recorded hepatic extraction ratio at 1 µM for COC[C@H](NC(=O)c1cc(OC)no1)C(=O)N[C@@H](COC)C(=O)N[C@@H](CC(C)C)C(=O)[C@@]1(C)CO1 meets or exceeds 0.5 dimensionless ratio. not fulfilled

Please indicate if the recorded hepatic extraction ratio at 1 µM for COC[C@H](NC(=O)c1cc(OC)no1)C(=O)N[C@@H](COC)C(=O)N[C@@H](Cc1ccccc1)C(=O)[C@@]1(C)CO1 meets or exceeds 0.5 dimensionless ratio. fulfilled

Please indicate if the recorded hepatic extraction ratio at 1 µM for COC[C@H](NC(=O)c1cc(C)on1)C(=O)N[C@@H](Cc1ccccc1)C(=O)N[C@@H](CC(C)C)C(=O)[C@@]1(C)CO1 meets or exceeds 0.5 dimensionless ratio. fulfilled

Please indicate if the recorded hepatic extraction ratio at 1 µM for COC[C@H](NC(=O)c1cc(C)on1)C(=O)N[C@@H](Cc1cscn1)C(=O)N[C@@H](CC(C)C)C(=O)[C@@]1(C)CO1 meets or exceeds 0.5 dimensionless ratio. fulfilled

Where do the numbers come from? From ChEMBL document CHEMBL1138457.
